Assay: MTT cell viability assay in WI38 normal cells
Format: cell-based
Settings: human, WI38, 15.62 μg/mL, Table 5 comparison
measure-name: viability at 24 h, 15.62 μg/mL (%)
Write the number in % without appending the unit.

IN: Answer with the recorded viability at 24 h, 15.62 μg/mL of COc1cccc2c1C(=O)c1c(O)c3c(c(O)c1C2=O)C[C@@](O)(C(=O)CO)C[C@@H]3O[C@H]1C[C@H](N)[C@H](O)[C@H](C)O1 [Doxorubicin] only.
OUT: 65.2
